# System: MRSA strain EMRSA-16
# Test method notes: CLSI broth microplate assay, MIC
# Format: cell-based
# Run parameters: Staphylococcus aureus, read-out: Minimum inhibitory concentration (MIC mg/L) EMRSA-16
Value kind: MIC (mg/L)
Kindly answer with a numeric value in mg/L, unit omitted.

Worked cases, answers included:
COC(=O)c1cc2cc(NC(=O)c3nc(NC(=O)CCCOc4cc5c(cc4OC)C(=O)N4CCC[C@H]4C=N5)cn3C)ccc2s1 [Compound 35]: 0.06
COc1cc2c(cc1OCCCC(=O)Nc1cn(C)c(C(=O)Nc3ccc(N4CCOCC4)nc3)n1)N=C[C@@H]1CCCN1C2=O [Compound 40]: 0.5
COC(=O)c1cc2cc(NC(=O)c3cc(NC(=O)CCCOc4cc5c(cc4OC)C(=O)N4CCC[C@H]4C=N5)cn3C)ccc2s1 [Compound 28]: 0.125
COc1cc2c(cc1OCCCC(=O)Nc1ccc(-c3cc(C(=O)Nc4ccc(N5CCOCC5)cc4)n(C)c3)cc1)N=C[C@@H]1CCCN1C2=O [Compound 49]: 2
COc1cc2c(cc1OCCCC(=O)Nc1cc(C(=O)Nc3ccc4occc4c3)n(C)c1)N=C[C@@H]1CCCN1C2=O [Compound 26]: 0.125
COc1cc2c(cc1OCCCC(=O)Nc1cc(C(=O)Nc3ccc(N4CCOCC4)nc3)n(C)c1)N=C[C@@H]1CCCN1C2=O [Compound 31]: 4

Please turn your attention to the following entry.
// fetch MRSA strain EMRSA-16 MIC for COc1cc2c(cc1OCCCC(=O)Nc1cn(C)c(C(=O)Nc3ccc(N4CCOCC4)cc3)n1)N=C[C@@H]1CCCN1C2=O [Compound 37]
0.5

###

# Test system: MRSA strain EMRSA-16
# Test method notes: CLSI broth microplate assay, MIC
# Format: cell-based
# Run parameters: Staphylococcus aureus, read-out: Minimum inhibitory concentration (MIC mg/L) EMRSA-16
Value kind: MIC (mg/L)
Give just the number in mg/L; leave the unit off.

COC(=O)c1cc(-c2ccc(NC(=O)c3cc(-c4ccc(NC(=O)CCCOc5cc6c(cc5OC)C(=O)N5CCC[C@H]5C=N6)cc4)co3)cc2)cn1C: 0.5

# query: MIC of entry COC(=O)c1cc(NC(=O)c2cc(NC(=O)c3cc(NC(=O)c4cc(NC(=O)c5cc(-c6ccc(NC(=O)CCCOc7cc8c(cc7OC)C(=O)N7CCC[C@H]7C=N8)cc6)cn5C)cn4C)cn3C)cn2C)cn1C
16

###

# Test system: MRSA strain EMRSA-15
# Test method notes: CLSI broth microplate assay, MIC
# Assay type: cell-based
# Run parameters: Staphylococcus aureus, read-out: Minimum inhibitory concentration (MIC mg/L) EMRSA-15
Output T for records whose MIC is lower than 0.2 mg/L, F for records at or above 0.2 mg/L.

See these solved cases before continuing.
COc1cc2c(cc1OCCCC(=O)Nc1cc(C(=O)Nc3ccc(N4CCOCC4)nc3)n(C)c1)N=C[C@@H]1CCCN1C2=O [Compound 31]: F
COC(=O)c1cc(-c2ccc(NC(=O)c3cc(-c4ccc(NC(=O)CCCOc5cc6c(cc5OC)C(=O)N5CCC[C@H]5C=N6)cc4)co3)cc2)cn1C [Compound 56]: F
COc1cc2c(cc1OCCCC(=O)Nc1ccc(-c3cc(C(=O)NCc4ccc(OCCN5CCOCC5)cc4)n(C)c3)cc1)N=C[C@@H]1CCCN1C2=O [Compound 52]: F
COc1cc2c(cc1OCCCC(=O)Nc1cn(C)c(C(=O)Nc3ccc(N4CCOCC4)cc3)n1)N=C[C@@H]1CCCN1C2=O [Compound 37]: T
COC(=O)c1cc(NC(=O)c2cc(NC(=O)c3cc(NC(=O)c4cc(NC(=O)c5cc(-c6ccc(NC(=O)CCCOc7cc8c(cc7OC)C(=O)N7CCC[C@H]7C=N8)cc6)cn5C)cn4C)cn3C)cn2C)cn1C [Compound 59]: F

Please turn your attention to the following entry.
Item COC(=O)c1cc2cc(NC(=O)c3nc(NC(=O)CCCOc4cc5c(cc4OC)C(=O)N4CCC[C@H]4C=N5)cn3C)ccc2s1 [Compound 35] : MIC beneath 0.2 mg/L, strictly?
T

src = patent US9321774B2
